- targetSystem: HLA-A*02:01 tetramer (human)
- protocol: peptide exchange on HLA-A*02:01 tetramer, entering peptide 20 µM, 4 h; competitor: exiting peptide ILKEKK(DNP)VHGV; capture on anti HLA-ABC beads, anti-DNP FITC, flow cytometry
Consider the following binders and their measured % peptide exchange readings.
measurementKind: % peptide exchange (%)

# binder, endpointResult
data = [
    ("WMHHNMDLI (modifications not checked) [… (SEQ ID NO: 37)]", 89.2),
    ("WMHKVPASL (modifications not checked) [… (SEQ ID NO: 35)]", 87.9),
    ("YLLEFTPPV (modifications not checked) [HLA-A*02:01 Reference peptide, … (SEQ ID NO: 5)]", 91.9),
    ("LTLGEFLKL (modifications not checked) [… (SEQ ID NO: 39)]", 43.6),
    ("SYVPSAEQI (modifications not checked) [… (SEQ ID NO: 47)]", 25),
    ("ALALEVGEL (modifications not checked) [… (SEQ ID NO: 46)]", 85.1),
    ("AVLDGLLSL (modifications not checked) [… (SEQ ID NO: 34)]", 90.7),
]

Data origin: patent US12044680
